The origin of these recorded values is patent US20230250060A1.

target: STING (Homo sapiens, UniProt Q86WV6, G230A/H232R/R293Q/R71H); test: STING reporter assay (luciferase) in THP1-Dual KO-IFNAR2 cells stimulated with 2′3′cGAMP; details: 2′3′cGAMP 15 μM final, 24 h, luciferase reporter activity, read-out: Pharmaron, THP1_IFNAR2 STING 24 h Luci Normalized: GeoMean EC50
Sequence (Q86WV6 whole entry R71H/G230A/H232R/R293Q): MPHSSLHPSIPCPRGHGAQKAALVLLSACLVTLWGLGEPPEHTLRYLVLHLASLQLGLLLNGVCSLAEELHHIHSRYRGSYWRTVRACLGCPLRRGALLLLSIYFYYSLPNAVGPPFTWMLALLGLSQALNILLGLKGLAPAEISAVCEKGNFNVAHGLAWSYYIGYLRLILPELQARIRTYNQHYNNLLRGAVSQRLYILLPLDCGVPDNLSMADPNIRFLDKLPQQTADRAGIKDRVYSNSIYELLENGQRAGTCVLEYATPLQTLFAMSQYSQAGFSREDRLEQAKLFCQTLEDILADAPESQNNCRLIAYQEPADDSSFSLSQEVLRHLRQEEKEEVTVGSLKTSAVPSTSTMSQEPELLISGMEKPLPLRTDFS
Listed below: EC50 values for each entry.

For orientation, consider the following solved cases.
{"mol": "O=C(Nc1c[nH]c2ccc(OCCc3ccc(C(F)(F)F)cc3)cc12)c1cncs1", "target_of_assay": "STING (Homo sapiens, UniProt Q86WV6, G230A/H232R/R293Q/R71H)", "measured_property": "EC50", "result": "200 to 1000 nM"}
{"mol": "O=C(Nc1c[nH]c2ccc(CCOc3ccc(C(F)(F)F)cc3)cc12)C1CC2(CCC2)C1", "target_of_assay": "STING (Homo sapiens, UniProt Q86WV6, G230A/H232R/R293Q/R71H)", "measured_property": "EC50", "result": "40 to 200 nM"}
{"mol": "CC12CC(C(=O)Nc3c[nH]c4ccc(OCCc5ccc(C(F)(F)F)cc5)cc34)(C1)C2", "target_of_assay": "STING (Homo sapiens, UniProt Q86WV6, G230A/H232R/R293Q/R71H)", "measured_property": "EC50", "result": "200 to 1000 nM"}

For the next question, use this compound.
What value of EC50 on STING (Homo sapiens, UniProt Q86WV6, G230A/H232R/R293Q/R71H) does `O=C(Nc1c[nH]c2ccc(OCCc3ccc(C(F)(F)F)cc3)cc12)C1CC2(CCC2)C1` have?
40 to 200 nM

====

molecular target: STING (Homo sapiens, UniProt Q86WV6, G230A/H232R/R293Q/R71H); experiment: STING reporter assay (luciferase) in THP1-Dual KO-IFNAR2 cells stimulated with 2′3′cGAMP; settings: 2′3′cGAMP 15 μM final, 24 h, luciferase reporter activity, read-out: Pharmaron, THP1_IFNAR2 STING 24 h Luci Normalized: GeoMean EC50
Listed below: EC50 values for each entry.

{"compound": "O=C(Nc1c[nH]c2ccc(Oc3ccccc3)cc12)c1cnn(Cc2ccc(C(F)(F)F)cc2)c1 [Compound 246]", "EC50": "40 to 200 nM"}
{"compound": "O=C(Nc1c[nH]c2ccc(O[C@H]3C[C@@H](c4ccc(C(F)(F)F)cc4)C3)cc12)C1CC12CC2 (stereo partly shown) [Compound 172]", "EC50": "200 to 1000 nM"}
{"compound": "O=C(Nc1c[nH]c2ccc(O[C@H]3C[C@@H](c4ccc(C(F)(F)F)cc4)C3)cc12)C1CC2(CC2)C1 [Compound 156]", "EC50": "200 to 1000 nM"}

For the next question, use this compound.
What value of EC50 has been recorded for this entry: CC12CC(C(=O)Nc3c[nH]c4ccc(OCC[C@@H]5C[C@@H]6CN(CC(F)(F)F)C[C@@H]6C5)cc34)(C1)C2 [Compound 142]
200 to 1000 nM

====

Target: STING (Homo sapiens, UniProt Q86WV6, G230A/H232R/R293Q/R71H)
Test: STING reporter assay (luciferase) in THP1-Dual KO-IFNAR2 cells stimulated with 2′3′cGAMP
Conditions: 2′3′cGAMP 15 μM final, 24 h, luciferase reporter activity, read-out: Pharmaron, THP1_IFNAR2 STING 24 h Luci Normalized: GeoMean EC50
Protocol: STING pathway activation by the compounds described herein was measured using TTIP1-Dual™ cells (KO-IFNAR2). […] 2 mL of solution A and 2 ml Solution B was mixed and incubated for 20 min at room temperature (RT). […] Luciferase reporter activity was then measured. EC50 values were calculated by using standard methods known in the art. […] Luciferase reporter activity was then measured. EC50 values were calculated by using standard methods known in the art.
measured_property: EC50

{"molecule": "O=C(Nc1c[nH]c2ccc(O[C@H]3C[C@H](c4ccc(C(F)(F)F)cc4)C3)cc12)c1nccs1", "measured_property": "EC50", "result": "0.04 to 0.2 µM"}

What value of EC50 on STING (Homo sapiens, UniProt Q86WV6, G230A/H232R/R293Q/R71H) does `O=C(Nc1c[nH]c2ccc(OCCc3ccc(C(F)(F)F)cc3)cc12)C12CC(F)(C1)C2` have?
0.2 to 1 µM

Next: `O=C(Nc1c[nH]c2ccc(OCC[C@@H]3C[C@@H]4CN(CC(F)(F)F)C[C@@H]4C3)cc12)c1ncccc1F`
1 to 5 µM

Next: `Cc1oncc1C(=O)Nc1c[nH]c2ccc(OCCc3ccc(C(F)(F)F)cc3)cc12`
5 to 100 µM

Next: `Cc1noc(C)c1C(=O)Nc1c[nH]c2ccc(OCCc3ccc(C(F)(F)F)cc3)cc12`
0.2 to 1 µM

Next: O=C(Nc1c[nH]c2ccc(OCC[C@@H]3C[C@@H]4CN(CC(F)(F)F)C[C@@H]4C3)cc12)C1CC12CC2 (stereo partly shown)
1 to 5 µM

Next: `O=C(Nc1c[nH]c2ccc(CCOc3ccc(C(F)(F)F)cc3)cc12)c1cccnc1`
0.2 to 1 µM

====

target: STING (Homo sapiens, UniProt Q86WV6, G230A/H232R/R293Q/R71H); construct: host or cells: THP1-Dual KO-IFNAR2 cells; test: STING reporter assay (luciferase) in THP1-Dual KO-IFNAR2 cells stimulated with 2′3′cGAMP; type: cell-based; conditions: 2′3′cGAMP 15 μM final, 24 h, luciferase reporter activity, read-out: Pharmaron, THP1_IFNAR2 STING 24 h Luci Normalized: GeoMean EC50
pEC50: −log10 of the molar value.
Listed below: pEC50 values for each entry.

For orientation, consider the following solved cases.
{"mol": "O=C(Nc1c[nH]c2ccc(OCc3ccc(C(F)(F)F)cc3)cc12)C12CC(F)(C1)C2", "measured_property": "pEC50", "result": "6.00 to 6.70"}
{"mol": "O=C(Nc1c[nH]c2ccc(OCC[C@@H]3C[C@@H]4CN(CC(F)(F)F)C[C@@H]4C3)cc12)c1cccnc1", "measured_property": "pEC50", "result": "6.00 to 6.70"}
{"mol": "N#CC12CC(C(=O)Nc3c[nH]c4ccc(OCCc5ccc(C(F)(F)F)cc5)cc34)(C1)C2", "measured_property": "pEC50", "result": "6.00 to 6.70"}

For the next question, use this compound.
What value of pEC50 has been recorded for this entry: `CC12CC(C(=O)Nc3c[nH]c4ccc(O[C@H]5C[C@H](c6ccc(C(F)(F)F)cc6)C5)cc34)(C1)C2`
6.70 to 7.40

====

biological target: STING (Homo sapiens, UniProt Q86WV6, G230A/H232R/R293Q/R71H); experiment: STING reporter assay (luciferase) in THP1-Dual KO-IFNAR2 cells stimulated with 2′3′cGAMP; conditions: 2′3′cGAMP 15 μM final, 24 h, luciferase reporter activity, read-out: Pharmaron, THP1_IFNAR2 STING 24 h Luci Normalized: GeoMean EC50
measured_property: EC50

For orientation, consider the following solved cases.
{"compound": "Cn1cc(C(=O)Nc2c[nH]c3ccc(O[C@H]4C[C@H](c5ccc(C(F)(F)F)nc5)C4)cc23)nn1 [Compound 219]", "EC50": "0.2 to 1 µM"}
{"compound": "O=C(Nc1c[nH]c2ccc(CCOc3ccc(C(F)(F)F)cc3)cc12)c1ncccc1F [Compound 117]", "EC50": "0.2 to 1 µM"}

What value of EC50 has been recorded for this entry: O=C(Nc1c[nH]c2ccc(OCc3ccc(C(F)(F)F)cc3)cc12)c1nccs1 [Compound 141]
0.2 to 1 µM

Next: O=C(Nc1c[nH]c2ccc(OCCc3ccc(C(F)(F)F)cc3)cc12)C1CC12CC2 (stereo not drawn) [Compound 126]
0.04 to 0.2 µM

Next: O=C(Nc1c[nH]c2ccc(CCOc3ccc(C(F)(F)F)cc3)cc12)c1ccn[nH]1 [Compound 160]
0.2 to 1 µM

Next: O=C(Nc1c[nH]c2ccc(OCC[C@@H]3C[C@@H]4CN(CC(F)(F)F)C[C@@H]4C3)cc12)c1ccncc1 [Compound 179]
0.2 to 1 µM

====

biological target: STING (Homo sapiens, UniProt Q86WV6, G230A/H232R/R293Q/R71H); assay: STING reporter assay (luciferase) in THP1-Dual KO-IFNAR2 cells stimulated with 2′3′cGAMP; conditions: 2′3′cGAMP 15 μM final, 24 h, luciferase reporter activity, read-out: Pharmaron, THP1_IFNAR2 STING 24 h Luci Normalized: GeoMean EC50
Listed below: EC50 values for each entry.

For orientation, consider the following solved cases.
{"mol": "O=C(Nc1c[nH]c2ccc(OCC[C@@H]3C[C@@H]4CN(CC(F)(F)F)C[C@@H]4C3)cc12)C1CC2(CCC2)C1", "result": "200 to 1000 nM"}
{"mol": "O=C(Nc1c[nH]c2ccc(OCCc3ccc(C(F)(F)F)cc3)cc12)c1cn(-c2cnc(N3CCC(F)(F)CC3)c(F)c2)nn1", "result": "200 to 1000 nM"}
{"mol": "Cn1cc(C(=O)Nc2c[nH]c3ccc(OCCc4ccc(C(F)(F)F)cc4)cc23)nn1", "result": "40 to 200 nM"}

What value of EC50 on STING (Homo sapiens, UniProt Q86WV6, G230A/H232R/R293Q/R71H) does `Cc1oncc1C(=O)Nc1c[nH]c2ccc(O[C@H]3C[C@H](c4ccc(C(F)(F)F)cc4)C3)cc12` have?
5000 to 100000 nM

Next: `O=C(Nc1c[nH]c2ccc(O[C@H]3C[C@H](c4ccc(C(F)(F)F)cc4)C3)cc12)c1ccn[nH]1`
40 to 200 nM

Next: `O=C(Nc1c[nH]c2ccc(O[C@H]3C[C@H](c4ccc(C(F)(F)F)nc4)C3)cc12)c1ccc(C(F)(F)F)cc1`
200 to 1000 nM

Next: `O=C(CC1CC1)Nc1c[nH]c2ccc(O[C@H]3C[C@@H](c4ccc(C(F)(F)F)cc4)C3)cc12`
40 to 200 nM
